Provenance of the data: paper PMC6561178

Target: EcCc Hfq (Escherichia coli / Caulobacter …, UniProt P0A6X3 1-67+B8GW92:71-82, internal_change)
Test: EMSA; Hill n 4.5; EMSA: 34 mM Tris-HCl pH 7.5, 50 mM NaCl, 50 mM KCl, 50 mM NH4Cl, 11.4 mM EDTA, 12% glycerol, 30 C, 30 min, ~1 nM 32P-RNA, Kd in Hfq6; anisotropy: 10 mM Tris-HCl
Conditions: protein: recombinant; tags: untagged; chain copies: 6; label: 32P; stem-loops
property label: Kd (nM)
Write it as a number; the unit nM goes unstated.

Prompt line: So what does the record say about Kd for RybB (structured_RNA) RNA: GGCCACUGCUUUUCUUUGAUGUCCCCAUUUUGUGGAGCCCAUCAACCCCGCCAUUUCGGUUCAAGGUUGAUGGGUUUUUU ?
Response line: 37.3
